# measurement-protocol: in vitro
# applied-conditions: African green monkey
CC50 for assorted compounds

{"compound": "COc1cc(NC(C(=O)N2CCc3cc(F)c(OC(F)(F)F)cc32)c2ccc(Cl)cc2OCCO)cc(-n2cncn2)c1 (racemic)", "CC50 (µM)": 3.9}
{"compound": "COc1cc(NC(C(=O)N2CCc3cc(F)c(OC(F)(F)F)cc32)c2ccc(Cl)cc2OCCCC(=O)O)cc(-n2cncn2)c1 (single isomer, unassigned) [Compound 15A]", "CC50 (µM)": 10}
{"compound": "COc1cc(NC(C(=O)N2CCc3cc(OC)c(C(F)(F)F)cc32)c2ccc(Cl)cc2OCCO)cc(-n2cncn2)c1 (racemic) [Compound 5]", "CC50 (µM)": 11}
{"compound": "COc1cc(NC(C(=O)N2CCc3c(C)cc(OC(F)(F)F)cc32)c2ccc(Cl)cc2OCCO)cc(-n2cncn2)c1 (racemic) [Compound 10]", "CC50 (µM)": 10}
{"compound": "COc1cc(NC(C(=O)N2CCc3ccc(C(F)(F)F)cc32)c2ccc(Cl)cc2OCCO)cc(-n2cncn2)c1 (single isomer, unassigned)", "CC50 (µM)": 7.8}
{"compound": "COc1cc(NC(C(=O)N2CCc3ccc(OC(F)(F)F)cc32)c2ccc(Cl)cc2OCCO)cc(-n2cncn2)c1 (single isomer, unassigned) [Compound 6A]", "CC50 (µM)": 8.5}
